Reference source for all entries: patent US11857535B2

- procedure.details: Compound exposure (PK) in plasma, spleen and tumor of OCI-Ly10 xenograph mice
- Assay type: in vivo, mouse
- details: C.B. 17 SCID, mouse, tumor; 30 mpk, after 5d dosing; read-out: Tumor C24 h

{"molecule": "CC(C)(O)c1cc2nc([C@H]3CC[C@H](CN4CC5(CC(CCNc6cccc7c6C(=O)N(C6CCC(=O)NC6=O)C7=O)C5)C4)CC3)sc2cc1NC(=O)c1cccc(C(F)(F)F)n1 (stereo partly shown)", "concentration at 24 h, µM": 64}

----------
- procedure.details: Compound exposure (PK) in plasma, spleen and tumor of OCI-Ly10 xenograph mice
- Assay type: in vivo, mouse
- details: C.B. 17 SCID, mouse, plasma, 10 mg/kg; 10 mpk PO
- Description: At termination: At pre-determined time points based on study design, animals were humanely sacrificed by CO2. Blood was obtained by cardiac puncture for isolation of plasma, any residual tumor was removed and divided in 2 portions, 1 (minimal) for terminal compound exposure and 1 to determine IRAK4 and actin. Compound was determined in tumor and plasma using LC/MS with calibrated standards.

{"compound": "CC(C)(O)c1cc2nc([C@H]3CC[C@H](CN4CC5(CC(CCNc6cccc7c6C(=O)N(C6CCC(=O)NC6=O)C7=O)C5)C4)CC3)sc2cc1NC(=O)c1cccc(C(F)(F)F)n1 (stereo partly shown)", "Tmax / h": 8}
